Hey, just so you know, these numbers are from PubChem BioAssay (NCATS).

Test system: Zika virus NS2B-NS3 protease (linked construct)
test-method-notes: Primary screen NINDS Rhodamine qHTS for Zika virus inhibitors (AID 1347160); further: nearly all actives have a fitted effect of over 55% in size
stated-conditions: purified NS2B-NS3 protease, Rhodamine110 substrate fluorescence; series mostly up to 57.1 µM
Inconclusive results are not listed. The source made the active and inactive calls. The call rests on the fitted dose curve; in most records, active means well fitted inhibition curve with a large enough effect; inconclusive means small, poorly fitted or top-dose-only effect; inactive means no such curve, though single readings can be large or run the other way.
Classes to choose from: true (1) = active, false (0) = inactive

Example entries begin here.
{"columns": ["molecule", "group-label"],
 "data": [
  ["Cc1cc(C)cc(-c2cnc3cc(Cl)c(-c4cccc(O)c4)cc3c2OCCCN)c1", "false (0)"],
  ["CC1=C(C(=O)OC2CCCCC2)C(c2ccc([N+](=O)[O-])cc2)C2=C(CC(C)(C)CC2=O)N1 (configuration not stated)", "true (1)"],
  ["CC[C@H](C)/C=C(C)/C=C/C1=CC2=C(Cl)C(=O)[C@](C)(O)[C@H](OC(C)=O)[C@H]2CO1", "true (1)"],
  ["COc1cc2c(cc1OCCCN1CCCC1)N=C(N)C21CCC1", "false (0)"],
  ["CC1(C)CC[C@]2(C(=O)O[C@@H]3O[C@H](CO)[C@@H](O)[C@H](O)[C@H]3O)CC[C@]3(C)C(=CCC4[C@@]5(C)CC[C@H](O[C@@H]6O[C@H](C(=O)O)[C@H](O)[C@H](O)[C@H]6O)C(C)(C)C5CC[C@]43C)[C@@H]2C1 (some centres not stated)", "false (0)"]
]}

Task: Can you look up the reported call for `CCCN1CCC=C(c2cc(-c3ccc(C)cc3)no2)C1` for me?
Output: false (0)

Task: Would you mind doing `COc1cc(O)c2c(c1)/C=C/C[C@H](O)[C@H](O)C(=O)/C=C\C[C@H](C)OC2=O` as well?
Output: false (0)

Task: Would you mind doing `CC(/C=C/C(=O)NO)=C\[C@@H](C)C(=O)c1ccc(N(C)C)cc1` as well?
Output: false (0)

Task: Would you mind doing `CN1CCN(c2ccc(OC(F)(F)F)c(Nc3ncc4c(n3)-c3c(c(C(N)=O)nn3CCO)CC4)c2)CC1` as well?
Output: false (0)

Task: Would you mind doing `C=CC(=O)Nc1ccc2ncnc(Nc3cccc(Br)c3)c2c1` as well?
Output: false (0)

Task: Would you mind doing `Cc1cc(-c2nc(-c3ccc(OC(F)(F)F)cc3)no2)nn1Cc1ccnc(N2CCN(C3CC3)CC2)c1` as well?
Output: false (0)

Task: Would you mind doing O=C1C(Cc2ccc(O)cc2)N2C(=O)CCN(C(=O)NCc3ccccc3)C2CN1Cc1cccc2ccccc12 (configuration not stated) as well?
Output: false (0)

Task: Would you mind doing `C=C1C(=O)O[C@@H]2/C=C(\C)CC/C=C(\C)CC[C@@H]12` as well?
Output: false (0)

Task: Would you mind doing CC(=O)O[C@@]12CO[C@@H]1C[C@H](O)[C@@]1(C)C(=O)[C@H](O)C3=C(C)[C@@H](OC(=O)[C@H](O)[C@@H](NC(=O)OC(C)(C)C)c4ccccc4)C[C@@](O)([C@@H](OC(=O)c4ccccc4)C12)C3(C)C (some centres not stated) as well?
Output: false (0)

Task: Would you mind doing `CCC(=O)N1CCOc2c(cc(-c3ccc(OC)c(OC)c3)cc2OC[C@H]2CCCN(C)C2)C1` as well?
Output: false (0)

Task: Would you mind doing C=C(C)C(=O)OC1CC(CO)CCC/C(CO)=C/C2OC(=O)C(=C)C21 (configuration not stated) as well?
Output: false (0)

Task: Would you mind doing `O=C(NC1CCC1)c1ccc(C#Cc2cccc(F)c2)nc1` as well?
Output: false (0)
